assay info: Dynamic solubility in water, SGF, FaSSIF and FeSSIF
Format: physicochemical
measurement parameters: fessif, 1 hour, 37 °C; read-out: S: solubility
Counter-ions that a name gives are not always drawn.

compound: Cc1nc(N[C@H](C)c2cccc(S(F)(F)(F)(F)F)c2)c2cn(C3(CF)CC3)c(=O)cc2n1 [Crystal form A of fumarate salt]
solubility at 1 h / µg/mL: 3510

###

assay info: Dynamic solubility in water, SGF, FaSSIF and FeSSIF
Format: physicochemical
measurement parameters: FeSSIF, 1 hour, 37 °C
Where a name gives a salt, the structure may show the parent alone.
measured property: pH of filtrate

molecule: Cc1nc(N[C@H](C)c2cccc(S(F)(F)(F)(F)F)c2)c2cn(C3(CF)CC3)c(=O)cc2n1 [Crystal form A of compound of formula I]
numeric readout: 5.1
--
molecule: Cc1nc(N[C@H](C)c2cccc(S(F)(F)(F)(F)F)c2)c2cn(C3(CF)CC3)c(=O)cc2n1 [Crystal form A of methanesulfonate salt]
numeric readout: 4.8
--
molecule: Cc1nc(N[C@H](C)c2cccc(S(F)(F)(F)(F)F)c2)c2cn(C3(CF)CC3)c(=O)cc2n1 [Crystal form A of ethanesulfonate salt]
numeric readout: 4.8
--
molecule: Cc1nc(N[C@H](C)c2cccc(S(F)(F)(F)(F)F)c2)c2cn(C3(CF)CC3)c(=O)cc2n1 [Crystal form A of fumarate salt]
numeric readout: 4.6
--
molecule: Cc1nc(N[C@H](C)c2cccc(S(F)(F)(F)(F)F)c2)c2cn(C3(CF)CC3)c(=O)cc2n1 [Crystal form B of citrate salt]
numeric readout: 4.8
